molecular target: human CD28 (human, UniProt P10747 19-220); assay: cell-based or functional assay
In this section, each of the binders is paired with its reported Luciferase assay (EC50).

binder	unit info	Luciferase assay (EC50)
1h-79-20 (other) VL: DIQMTQSPSSLSASVGDRVTVTCRASQPIGHSLAWYQQKPGKAPKLLIYWASMLQSGVPSRFSGSGSGTDFTLTISSLQPEDFATYYCQQMLRTPFTFGQGTKVEIKR	nM	1800
1h-99-217 (other) VH: EVQLLESGGGLVQPGGSLRLSCAASGFTFSRSNMSWGRQAPGKGLEWVSWIEDTGTQTFYADSVKGRFTISRDNSKNTLYLQMNSLRAEDTAVYYCAKSPFGPLYGFDYRGQGTLVTVSS	nM	12
1h-114 (other) VH: EVQLLESGGGLVQPGGSLRLSCAASGFTFASYSMAWVRQAPGKGLEWVSTIMPSGQRTYYADSVKGRFTISRDNSKNTLYLQMNSLRAEDTAVYYCAKNQSHQRRGIFDYWGQGTLVTVSS	nM	3100
1h-239-817 (other) VL: DIQMTQSPSSLSASVGDRVTITCRASKPIYPFLEWYQQKPGKAPKLLIYFTSRLQSGVPSRFSGSGSGTDFTLTISSLQPEDFATYYCLQNVTNPATFSQGTKVEIKR	nM	7
